Exercise: state measured viability at 24 h, 10 µM for each of the compounds provided.
Protocol description: RAW264.7 cell proliferation / cytotoxicity by MTT assay
Settings: mouse, RAW264.7 cells
Numbers only; they are read as %.

-- ask Tell me the measured viability at 24 h, 10 µM of CCC(=O)OC1C2(O)C(OC(C)=O)C3(C)CC24OC2(C)OC15C1CC(=O)OC(c6ccoc6)C1(C)CCC5(O2)C41COC(=O)CC31 (stereo not shown) [Compound 3, carapanolide L] , please.
-- reply 97.3

-- ask Query CC1(C)C(=O)C=CC2(C)C1CC(=O)C1(C)C2C(O)CC2(C)C(c3ccoc3)OC(=O)C3OC321 (stereo not drawn) [Compound 1, 11α-hydroxy-7-deacetoxy-7-oxogedunin] next
-- reply 101

-- ask Query [H]/N=C(/NC)NCCC[C@H](N)C(=O)O [L-NMMA, reference compound] next
-- reply 102

-- ask Query C/C=C(\C)C(=O)OC1C2(C)CC3(O)C(C)(C4CCC5(C)C(=C4C(OC(=O)C(C)CC)C13O)C(OC(C)=O)C(=O)OC5c1ccoc1)C2CC(=O)OC (stereo not shown) [Compound 2, carapanolide K] next
-- reply 65.6

----------
Protocol description: RAW264.7 cell proliferation / cytotoxicity by MTT assay
Settings: mouse, RAW264.7 cells
Method: Physiological nitric oxide (NO) is involved in blood pressure regulation and blood flow distribution, whereas its overexpression may induce tissue injury, multiple organ dysfunction, and death, as well as systemic inflammatory responses in sepsis, such as hypotension, cardiodepression, and vascular hyporeactivity. […] To determine safe concentrations, the cytotoxicities of these limonoids against RAW 264.7 were assessed by the MTT assay. […]
Exercise: state measured viability at 24 h, 30 µM for each of the compounds provided.
Answer format: number, then unit.

-- ask Tell me the measured viability at 24 h, 30 µM of CCC(=O)OC1C2(O)C(OC(C)=O)C3(C)CC24OC2(C)OC15C1CC(=O)OC(c6ccoc6)C1(C)CCC5(O2)C41COC(=O)CC31 (stereo not shown) [Compound 3, carapanolide L] , please.
-- reply 100%

-- ask Query CC1(C)C(=O)C=CC2(C)C1CC(=O)C1(C)C2C(O)CC2(C)C(c3ccoc3)OC(=O)C3OC321 (stereo not drawn) [Compound 1, 11α-hydroxy-7-deacetoxy-7-oxogedunin] next
-- reply 103%

-- ask Query C/C=C(\C)C(=O)OC1C2(C)CC3(O)C(C)(C4CCC5(C)C(=C4C(OC(=O)C(C)CC)C13O)C(OC(C)=O)C(=O)OC5c1ccoc1)C2CC(=O)OC (stereo not shown) [Compound 2, carapanolide K] next
-- reply 33.6%

-- ask Query [H]/N=C(/NC)NCCC[C@H](N)C(=O)O [L-NMMA, reference compound] next
-- reply 94.1%

----------
Protocol description: RAW264.7 cell proliferation / cytotoxicity by MTT assay
Settings: mouse, RAW264.7 cells
Recorded endpoint: IC50 at 24 h

-- ask Tell me the measured IC50 at 24 h of CCC(=O)OC1C2(O)C(OC(C)=O)C3(C)CC24OC2(C)OC15C1CC(=O)OC(c6ccoc6)C1(C)CCC5(O2)C41COC(=O)CC31 (stereo not shown) [Compound 3, carapanolide L] , please.
-- reply > 100 µM

-- ask Query [H]/N=C(/NC)NCCC[C@H](N)C(=O)O [L-NMMA, reference compound] next
-- reply > 100 µM

-- ask Query CC1(C)C(=O)C=CC2(C)C1CC(=O)C1(C)C2C(O)CC2(C)C(c3ccoc3)OC(=O)C3OC321 (stereo not drawn) [Compound 1, 11α-hydroxy-7-deacetoxy-7-oxogedunin] next
-- reply > 100 µM

-- ask Query C/C=C(\C)C(=O)OC1C2(C)CC3(O)C(C)(C4CCC5(C)C(=C4C(OC(=O)C(C)CC)C13O)C(OC(C)=O)C(=O)OC5c1ccoc1)C2CC(=O)OC (stereo not shown) [Compound 2, carapanolide K] next
-- reply 15.2 µM

----------
Exercise: state measured viability at 24 h, 3 µM for each of the compounds provided.
Protocol description: RAW264.7 cell proliferation / cytotoxicity by MTT assay
Settings: mouse, RAW264.7 cells
Numbers only; they are read as %.

-- ask Tell me the measured viability at 24 h, 3 µM of CCC(=O)OC1C2(O)C(OC(C)=O)C3(C)CC24OC2(C)OC15C1CC(=O)OC(c6ccoc6)C1(C)CCC5(O2)C41COC(=O)CC31 (stereo not shown) [Compound 3, carapanolide L] , please.
-- reply 97.6

-- ask Query C/C=C(\C)C(=O)OC1C2(C)CC3(O)C(C)(C4CCC5(C)C(=C4C(OC(=O)C(C)CC)C13O)C(OC(C)=O)C(=O)OC5c1ccoc1)C2CC(=O)OC (stereo not shown) [Compound 2, carapanolide K] next
-- reply 81.4

-- ask Query CC1(C)C(=O)C=CC2(C)C1CC(=O)C1(C)C2C(O)CC2(C)C(c3ccoc3)OC(=O)C3OC321 (stereo not drawn) [Compound 1, 11α-hydroxy-7-deacetoxy-7-oxogedunin] next
-- reply 102

-- ask Query [H]/N=C(/NC)NCCC[C@H](N)C(=O)O [L-NMMA, reference compound] next
-- reply 104

----------
Protocol description: RAW264.7 cell proliferation / cytotoxicity by MTT assay
Settings: mouse, RAW264.7 cells
Recorded endpoint: viability at 24 h, 100 µM

-- ask Tell me the measured viability at 24 h, 100 µM of [H]/N=C(/NC)NCCC[C@H](N)C(=O)O [L-NMMA, reference compound] , please.
-- reply 96.5%

-- ask Query CCC(=O)OC1C2(O)C(OC(C)=O)C3(C)CC24OC2(C)OC15C1CC(=O)OC(c6ccoc6)C1(C)CCC5(O2)C41COC(=O)CC31 (stereo not shown) [Compound 3, carapanolide L] next
-- reply 94.4%

-- ask Query CC1(C)C(=O)C=CC2(C)C1CC(=O)C1(C)C2C(O)CC2(C)C(c3ccoc3)OC(=O)C3OC321 (stereo not drawn) [Compound 1, 11α-hydroxy-7-deacetoxy-7-oxogedunin] next
-- reply 103%

-- ask Query C/C=C(\C)C(=O)OC1C2(C)CC3(O)C(C)(C4CCC5(C)C(=C4C(OC(=O)C(C)CC)C13O)C(OC(C)=O)C(=O)OC5c1ccoc1)C2CC(=O)OC (stereo not shown) [Compound 2, carapanolide K] next
-- reply 0.4%

----------
Protocol description: RAW264.7 cell proliferation / cytotoxicity by MTT assay
Settings: mouse
Procedure: Physiological nitric oxide (NO) is involved in blood pressure regulation and blood flow distribution, whereas its overexpression may induce tissue injury, multiple organ dysfunction, and death, as well as systemic inflammatory responses in sepsis, such as hypotension, cardiodepression, and vascular hyporeactivity. […] To determine safe concentrations, the cytotoxicities of these limonoids against RAW 264.7 were assessed by the MTT assay. […]
Recorded endpoint: IC50 at 24 h
Answer format: number, then unit.

-- ask Tell me the measured IC50 at 24 h of `CC(=O)O[C@@H]1C[C@H]2C(C)(C)C(=O)C=C[C@]2(C)[C@H]2CC[C@@]3(C)[C@H](c4ccoc4)C(=O)[C@H]4O[C@]43[C@@]21C` , please.
-- reply 21.3 µM

----------
Protocol description: RAW264.7 cell proliferation / cytotoxicity by MTT assay
Settings: mouse
Recorded endpoint: viability at 24 h, 10 µM (%)
Numbers only; they are read as %.

-- ask Tell me the measured viability at 24 h, 10 µM of CC(=O)O[C@@H]1C[C@H]2C(C)(C)C(=O)C=C[C@]2(C)[C@H]2CC[C@@]3(C)[C@H](c4ccoc4)C(=O)[C@H]4O[C@]43[C@@]21C [Compound 4, epoxyazadiradione] , please.
-- reply 99.7
